- System: HeLa, 35S-Met/Cys protein incorporation toxicity, 3 h
- Experiment Summary: 35S-Met/Cys incorporation reduction in HeLa – HeLa cells, cytotoxicity control for PMI inhibitor project, late-stage follow-up (AID 1620)
Activity calls are given as the source filed them.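 How the source made its calls: active means toxicity graded low, moderate or high, meaning less radioactive sulfur built into protein than in solvent-only controls; inactive means the rest.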
Respond using exactly one of the listed classes: active, inactive

FC(F)(F)c1ccc(N=c2ssnc2Cl)cc1 = active
O=c1c2ccc(F)cc2sn1-c1cc(Cl)ccc1Cl = active

## Task Which outcome was assigned to `COc1cc(N=c2ssnc2Cl)cc(OC)c1OC` in this test?
## Result inactive
